List of self-aminoacylation values.
- System: biotinyl-Leu-oxazolone
- experimental_details: self-aminoacylation, catalytic enhancement (BLO) (fold over background); higher = more active; k-Seq, kA / k0A0; sequences stand for … in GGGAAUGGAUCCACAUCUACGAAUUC…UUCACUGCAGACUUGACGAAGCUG
Fewer inactive variants are shown than the library holds.
Format: numeric value only, no unit, no commentary.

# count of solved cases: 3
| ordered_residues | self-aminoacylation |
| --- | --- |
| CUACUUCAGACAAUCGAUCUG [Fam1A.1 aminoacylation ribozyme variant] | 0.477 |
| CUACCGCAAACAAUCGGUCUG [Fam1A.1 aminoacylation ribozyme variant] | 0.896 |
| AUUACCUUGGUCAUCGAUUGA [Fam2.1 aminoacylation ribozyme variant] | 0.855 |

Problem: What measured self-aminoacylation is associated with CUUACCCUGGUCAUCAAGUGA [Fam2.1 aminoacylation ribozyme variant] on biotinyl-Leu-oxazolone?
Result: 2.58

###

- Tested on: biotinyl-Phe-oxazolone
- experimental_details: self-aminoacylation, catalytic enhancement (BFO) (fold over background); higher = more active; k-Seq, kA / k0A0; sequences stand for … in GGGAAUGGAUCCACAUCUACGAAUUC…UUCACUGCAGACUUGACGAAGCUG
Fewer inactive variants are shown than the library holds.
List of self-aminoacylation values.

# count of solved cases: 3
| ordered_residues | reading |
| --- | --- |
| AAGUCUACUAAUAGUCGCAAG [Fam3.1 aminoacylation ribozyme variant] | 3.17 |
| AAGUUUCCUAAGAGUCGCAAG [Fam3.1 aminoacylation ribozyme variant] | 1.17 |
| CUAAUUCACACAAUCGGUCUG [Fam1A.1 aminoacylation ribozyme variant] | 0.759 |

Problem: Look up self-aminoacylation: AUUGACAUAGGUCAUCGGGUG [Fam2.2 aminoacylation ribozyme variant]
Result: 48.4

Problem: Repeat for the following sequence: ACACACUUCAAGAAAUCGGUC [Fam1B.1 aminoacylation ribozyme variant]
Result: 5.64

###

List of self-aminoacylation values.
- Test system: biotinyl-Trp-oxazolone
- experimental_details: self-aminoacylation, catalytic enhancement (BWO) (fold over background); higher = more active; k-Seq, kA / k0A0; sequences stand for … in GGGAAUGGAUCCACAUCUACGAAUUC…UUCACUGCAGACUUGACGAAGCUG
Fewer inactive variants are shown than the library holds.
Format: numeric value only, no unit, no commentary.

| ordered_residues | experimental_target | self-aminoacylation |
| --- | --- | --- |
| AUUCACCUAGGUCUUCGGGUG [Fam2.2 aminoacylation ribozyme variant] | biotinyl-Trp-oxazolone | 4.38 |
| AAGUUUGCUAAUAGUUGGAAG [Fam3.1 aminoacylation ribozyme variant] | biotinyl-Trp-oxazolone | 0.896 |
| CCACCCUUCAAGCAAUCGGGC [Fam1B.1 aminoacylation ribozyme variant] | biotinyl-Trp-oxazolone | 2.65 |
| CCACACUUCAAGCAAUCAUUC [Fam1B.1 aminoacylation ribozyme variant] | biotinyl-Trp-oxazolone | 0.686 |
| CUACUUCAAACAAUCGGGCCG [Fam1A.1 aminoacylation ribozyme variant] | biotinyl-Trp-oxazolone | 1.22 |

Here is the next item to consider.
Problem: Look up self-aminoacylation: AGUACCCUGGCCAUCGAGUGA [Fam2.1 aminoacylation ribozyme variant]
Result: 4.09

###

List of self-aminoacylation values.
- Test system: biotinyl-Phe-oxazolone
- experimental_details: self-aminoacylation, catalytic enhancement (BFO) (fold over background); higher = more active; k-Seq, kA / k0A0; sequences stand for … in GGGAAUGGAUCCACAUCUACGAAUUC…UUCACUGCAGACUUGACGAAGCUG
Variants at the floor of the assay were thinned out.
Format: numeric value only, no unit, no commentary.

| ordered_residues | experimental_target | self-aminoacylation |
| --- | --- | --- |
| AUUCUCCAAGGUCAUCGGGUG [Fam2.2 aminoacylation ribozyme variant] | biotinyl-Phe-oxazolone | 102 |
| CCACAUCUCAAGCAAUCGGUC [Fam1B.1 aminoacylation ribozyme variant] | biotinyl-Phe-oxazolone | 1.41 |
| CCACACUUCGAGCAAGCGGUC [Fam1B.1 aminoacylation ribozyme variant] | biotinyl-Phe-oxazolone | 0.487 |
| AUUACCGUGGUCAUAGAGUGA [Fam2.1 aminoacylation ribozyme variant] | biotinyl-Phe-oxazolone | 35.7 |
| AUUCUCCUAGGUCAUCAGGUG [Fam2.2 aminoacylation ribozyme variant] | biotinyl-Phe-oxazolone | 6.58 |
| AUCCACCUAGGUCAUCGGGGG [Fam2.2 aminoacylation ribozyme variant] | biotinyl-Phe-oxazolone | 2.86 |
| CAACGUCAAACAAUCGGUCUG [Fam1A.1 aminoacylation ribozyme variant] | biotinyl-Phe-oxazolone | 3.29 |

Here is the next item to consider.
Problem: What measured self-aminoacylation is associated with CUACUUCGCACAAUCGGUCUG [Fam1A.1 aminoacylation ribozyme variant] on biotinyl-Phe-oxazolone?
Result: 0.439

###

- System: biotinyl-Met-oxazolone
- experimental_details: self-aminoacylation, catalytic enhancement (BMO) (fold over background); higher = more active; k-Seq, kA / k0A0; sequences stand for … in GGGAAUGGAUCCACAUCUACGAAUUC…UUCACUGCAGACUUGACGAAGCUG
Fewer inactive variants are shown than the library holds.
List of self-aminoacylation values.

| ordered_residues | self-aminoacylation |
| --- | --- |
| AGUCCCCUAGGUCAUCGGGUG [Fam2.2 aminoacylation ribozyme variant] | 12 |

Problem: Look up self-aminoacylation: AUUACCCUCGUCAUCGCGUGA [Fam2.1 aminoacylation ribozyme variant]
Result: 6.01

Problem: Repeat for the following sequence: AUUGACCUCGGUCAUCGGGUG [Fam2.2 aminoacylation ribozyme variant]
Result: 4.12

Problem: Repeat for the following sequence: CCACACUUCAAGAAAUCGGAC [Fam1B.1 aminoacylation ribozyme variant]
Result: 0.663

Problem: Repeat for the following sequence: CUACUUCAAACAAGCGGCCUG [Fam1A.1 aminoacylation ribozyme variant]
Result: 1.32

Problem: Repeat for the following sequence: GAACUUCAAACAAUCGGUCUG [Fam1A.1 aminoacylation ribozyme variant]
Result: 1.7

Problem: Repeat for the following sequence: AUUACCCUGGCCAUCUAGUGA [Fam2.1 aminoacylation ribozyme variant]
Result: 4.68

Problem: Repeat for the following sequence: AUUGCCCUGGUCAUCUAGUGA [Fam2.1 aminoacylation ribozyme variant]
Result: 8.83

Problem: Repeat for the following sequence: AUUACCCUGGUUAUCAAGUGA [Fam2.1 aminoacylation ribozyme variant]
Result: 2.67

###

- Tested on: biotinyl-Phe-oxazolone
- experimental_details: self-aminoacylation, catalytic enhancement (BFO) (fold over background); higher = more active; k-Seq, kA / k0A0; sequences stand for … in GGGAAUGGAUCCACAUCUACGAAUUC…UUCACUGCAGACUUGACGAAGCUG
Variants at the floor of the assay were thinned out.
List of self-aminoacylation values.
Format: numeric value only, no unit, no commentary.

| ordered_residues | experimental_target | self-aminoacylation |
| --- | --- | --- |
| AUUACCGUGGUCAUCGCGUGA [Fam2.1 aminoacylation ribozyme variant] | biotinyl-Phe-oxazolone | 140 |
| AAGUUUGCUAAUAUUGGCAAG [Fam3.1 aminoacylation ribozyme variant] | biotinyl-Phe-oxazolone | 0.81 |
| CCACUUCAAACAAUCGGUCUU [Fam1A.1 aminoacylation ribozyme variant] | biotinyl-Phe-oxazolone | 40.9 |
| CCACACUCCAAGCACUCGGUC [Fam1B.1 aminoacylation ribozyme variant] | biotinyl-Phe-oxazolone | 0.642 |

Problem: Look up self-aminoacylation: AAGUUUGCUAAGAUUCGCAAG [Fam3.1 aminoacylation ribozyme variant]
Result: 1.13

###

- Tested on: biotinyl-Leu-oxazolone
- experimental_details: self-aminoacylation, catalytic enhancement (BLO) (fold over background); higher = more active; k-Seq, kA / k0A0; sequences stand for … in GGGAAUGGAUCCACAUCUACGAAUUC…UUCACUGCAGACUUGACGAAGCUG
Variants at the floor of the assay were thinned out.
Use 2 as the dividing line for self-aminoacylation, with the line itself on the true (1) side and lower values as false (0).

| ordered_residues | class_assignment |
| --- | --- |
| CAACUUCAAACAAUCGGUCUU [Fam1A.1 aminoacylation ribozyme variant] | true (1) |
| CAGUUUGCUAAUAGUCGCGAG [Fam3.1 aminoacylation ribozyme variant] | true (1) |
| AUUACCCGUGUCAUCGAGUGA [Fam2.1 aminoacylation ribozyme variant] | true (1) |
| AUUACCCUGGUCAUCGCGUGU [Fam2.1 aminoacylation ribozyme variant] | true (1) |
| CUACUUCAAGCAAUCAGUCUG [Fam1A.1 aminoacylation ribozyme variant] | false (0) |

Problem: Determine whether this sequence has self-aminoacylation no lower than 2: AAGUUUGCUGAUACUCGCAAG [Fam3.1 aminoacylation ribozyme variant]
Result: false (0)

Problem: Repeat for the following sequence: CAACUUCAAAAAAUCGGUCUG [Fam1A.1 aminoacylation ribozyme variant]
Result: false (0)

Problem: Repeat for the following sequence: AUUCCCCUAGGUCCUCGGGUG [Fam2.2 aminoacylation ribozyme variant]
Result: true (1)

Problem: Repeat for the following sequence: CCACACUUCAACCAAUCGGUG [Fam1B.1 aminoacylation ribozyme variant]
Result: true (1)
